Reference for the values: ChEMBL document CHEMBL5303304

Listed next: entries and their corresponding Growth Rate.
system: U2OS; assay: Incucyte cell viability with U2OS; assay type: toxicity, cell-based; details: human, 18 h, 10 µM, compound concentration 10 uM, replicate number 1; further: unitless GR value; below 1 slowed growth and below 0 cell loss
Numbered stars: 1 amine (or outer) side, 2 acyl side, 3 side chain; on linkers, the order of the positions; unused ones are H or OH. Bridge positions count the residues as written; N and C are the ends. Square brackets hold non-standard residues; d marks the D form. Peptide text beside a SMILES is read from it. I, II: the chains in the order shown. Hexamethylenediamine = C(CCCN[*:2])CCN[*:1]; Dip = N[C@H](C(=O)O)C(c1ccccc1)c1ccccc1; Chg = N[C@H](C(=O)O)C1CCCCC1; NMeA = CN[C@@H](C)C(=O)O
Write the value as a bare number.

O=C1NC(=Nc2c(Cl)cccc2Cl)S/C1=C\c1ccc2nccnc2c1    0.81
O=C(NCCS(=O)(=O)c1ccc(C(F)(F)F)cn1)c1ccc(Cl)cc1    0.96
CN[C@@H](C)C(=O)N[C@H](C(=O)N1CCC[C@H]1C(=O)N[C@H](C(=O)NCCCCCCNC(=O)[C@@H](NC(=O)[C@@H]1CCCN1C(=O)[C@@H](NC(=O)[C@H](C)NC)C1CCCCC1)C(c1ccccc1)c1ccccc1)C(c1ccccc1)c1ccccc1)C1CCCCC1 (I: H-[NMeA][Chg]P[Dip] / II: H-[NMeA][Chg]P[Dip]; linker I:C-II:C via Hexamethylenediamine)    -0.25
CCC(C)(C)NC(=NC#N)Nc1cccnc1    1
Cc1c(-c2cc(-c3ccccc3Cl)no2)cnn1C1CCNCC1.Cl    0.87
CC(C)(O)[C@H]1CC[C@H](Nc2ccc3ncc(-c4cccc(C(F)(F)F)c4)n3n2)CC1    0.38

# evaluate next
Asked: Name the recorded Growth Rate for N#Cc1cccc(-c2c[nH]c3ncnc(N4CCOCC4)c23)c1 .
Given back: 0.31

###

tested on: Fibroblast; assay: Incucyte cell viability with human fibroblast; type: toxicity, cell-based; conditions: 0 h, 10 µM, compound concentration 10 uM, replicate number 1; further: unitless GR value; below 1 slowed growth and below 0 cell loss
Property measured: Growth Rate
# print the numeric value only

Solved entries (count: 2):
CN(C)CC#Cc1ccc2[nH]c3c(c2c1)-c1nc(N)ncc1CCC3    -1
COc1cc(-c2cc3ncccc3c(O[C@H](C)[C@H]3CNC(=O)C3)n2)cc(OC)c1OC.Cl    -1

Asked: May I ask what Growth Rate has been recorded for CCN1CCN(Cc2ccc(Nc3ncc(F)c(-c4cc(F)c5nc(C)n(C(C)C)c5c4)n3)nc2)CC1.CS(=O)(=O)O ?
Given back: 0.5

Asked: Can you check CCc1ccccc1C(=O)Nc1n[nH]c2c(C)c(F)c(C3C(C#N)=C(C)N(C)C(C)=C3C#N)cc12 next?
Given back: 0.47

Asked: Can you check CC1CNCCc2c1nc1ccnn1c2N1CC(C(=O)N2CCC(C)(C)C2)C1 (configuration not stated) next?
Given back: -1

Asked: How about this molecule: CC[C@@H](C(=O)OC)n1c(=O)c2ccccc2n(Cc2cn(C)c3cccc(C)c23)c1=O
Given back: -1

Asked: What about this molecule? N[C@H](C(=O)O)[C@@H]1CC(Cl)=NO1
Given back: -1

Asked: Same question, CC1(C)Cc2nc(C3CCCC3)c([C@@H](F)c3ccc(C(F)(F)F)cc3)c(C3CCCCC3)c2[C@@H](O)C1 this time
Given back: -0.22

Asked: Try this molecule next: S=c1[nH]nc(-c2cccs2)n1-c1ccccc1
Given back: 0.04

Asked: Same again, this time with Cn1cc(-n2cnc3c(NCc4nc5cc(Cl)c(Cl)cc5[nH]4)nc(N4CCOCC4)nc32)cn1
Given back: -1

Asked: Now consider O=C(Nc1ccc(Cl)c(-c2ccccn2)c1)c1cccc(COc2ccc(Br)cc2CNCCO)c1.O=CO .
Given back: -0.98
